Substrate: BHET
Conditions: 120 h
readout type: plate clearing

| protein | data value |
| --- | --- |
| unnamed (protein) MFNQIGKKSALSLMAAGSLMFSATALAIGGGGSGGGNNGGGGGCEADCGYERGPDPSVSLLEASTGPFSVRTSNVSSSVRGFGGGTIHYPTNTTGTMAAIVVIPGFVSPESSIAWWGPKLASHGFVVMTIGTNSGFDQPASRASQLNNALDYLIEQNGSSRSPINGMIDTDRLGVMGWSMGGGGTLRVATEGRVSAAIPLAPWDSSSSQFRSIDTPTLIFACENDSTAPVRSHADPFYDAIPDSTAKAFVELDGGGHTCANGSSGFGGSYNDVLSRLGVSWMKLHLDKDQRYNQFVCGPNHESDRSISEYRGTCPY | not clears the plate |
| unnamed (protein) MKTLFKAAVLCGAMLTSLGVLAQANPYQKGPDPTVSNLEAARGSFAVSSTSISGLSATGFGGGSLHYPTAAGSYGLIAVAPPYLAQSSSIAWLGPRLASHGFVVVMIDVNSTLDFPESRSRQQLAAIDYAIAQSARTTSPIYRKVDTTRRGVSGHSMGGGASILTARNAPANIKGAFPLTPWSSDKNFSSLQVPTGYLACESDTVAANADHSLNFYNRMPASTPKGYYELRGESHFCPQSTANNPVIGKYLVAWMKRFVDNDTRFSPFLSGALPNADLSSRRFSALRTSGL | not clears the plate |

The reported numbers originate from the PETadex activity labels.
